assay_protocol: Pharmacokinetics in mice after intravenous injection or gavage
measurement_conditions: BALB/c, mouse, plasma, iv, 2 mg/kg
Listed below: AUC(0-t) values for each entry.

{"columns": ["smiles_string", "AUC(0-t)"],
 "data": [
  ["Cc1nc2c(OC(F)F)cc(CN3CCN(c4ccc(C(=O)NC5CC5)nc4F)CC3)cc2[nH]c1=O", "11300 ng·h/mL"],
  ["CNC(=O)c1ccc(N2CCN(Cc3cc(OC(C)C)c4nc(C)c(=O)[nH]c4c3)CC2)c(F)n1", "2140 ng·h/mL"],
  ["CNC(=O)c1ccc(N2CCN(Cc3cc(OC(F)F)c4nc(C)c(=O)[nH]c4c3F)CC2)c(F)n1", "4680 ng·h/mL"],
  ["CC#Cc1cc(CN2CCN(c3ccc(C(=O)NC)nc3F)CC2)cc2[nH]c(=O)c(C)nc12", "2140 ng·h/mL"]
]}

* * *

assay_protocol: Pharmacokinetics in SD rats after intravenous injection or gavage
measurement_conditions: rat, plasma, po, 5 mg/kg
measured_quantity: log10(AUC(0-t)) (log10 of the value in ng·h/mL)

{"columns": ["smiles_string", "log10(AUC(0-t))"],
 "data": [
  ["CNC(=O)c1ccc(N2CCN(Cc3cc(OC(F)F)c4nc(C)c(=O)[nH]c4c3)CC2)c(C)n1", 4.49],
  ["CC#Cc1cc(CN2CC=C(c3ccc(C(=O)NC4CC4)nc3F)CC2)c(F)c2[nH]c(=O)c(C)nc12", 3.90],
  ["Cc1nc2c(OC(F)F)cc(CN3CCN(c4ccc(C(=O)NC5CC5)nc4F)CC3)cc2[nH]c1=O", 4.33],
  ["CNC(=O)c1ccc(N2CCN(Cc3cc(-c4ccccc4)c4nc(C)c(=O)[nH]c4c3)CC2)c(F)n1", 3.75],
  ["CNC(=O)c1ccc(N2CCN(Cc3cc(OC(C)C)c4nc(C)c(=O)[nH]c4c3)CC2)c(F)n1", 4.12],
  ["CC#Cc1cc(CN2CCN(c3ccc(C(=O)NC4CC4)nc3F)CC2)cc2[nH]c(=O)c(C)nc12", 4.68],
  ["CC#Cc1cc(CN2CCN(c3ccc(C(=O)NC)nc3F)CC2)cc2[nH]c(=O)c(C)nc12", 4.35],
  ["CNC(=O)c1ccc(N2CCN(Cc3cc(OC(F)F)c4nc(C)c(=O)[nH]c4c3)CC2)c(F)n1", 4.76],
  ["CNC(=O)c1ccc(C2=CCN(Cc3cc(OC(F)F)c4nc(C)c(=O)[nH]c4c3)CC2)c(F)n1", 4.50]
]}

* * *

Reported AUC(0-t) values for the following compounds.
assay_protocol: Pharmacokinetics in SD rats after intravenous injection or gavage
measurement_conditions: rat, plasma, iv, 1 mg/kg

{"columns": ["smiles_string", "AUC(0-t) [ng·h/mL]"],
 "data": [
  ["CC#Cc1cc(CN2CCN(c3ccc(C(=O)NC4CC4)nc3F)CC2)cc2[nH]c(=O)c(C)nc12", 5680],
  ["CNC(=O)c1ccc(N2CCN(Cc3cc(OC(C)C)c4nc(C)c(=O)[nH]c4c3)CC2)c(F)n1", 1990],
  ["CNC(=O)c1ccc(N2CCN(Cc3cc(-c4ccccc4)c4nc(C)c(=O)[nH]c4c3)CC2)c(F)n1", 1090],
  ["Cc1nc2c(OC(F)F)cc(CN3CCN(c4ccc(C(=O)NC5CC5)nc4F)CC3)cc2[nH]c1=O", 4500],
  ["CNC(=O)c1ccc(N2CCN(Cc3cc(OC(F)F)c4nc(C)c(=O)[nH]c4c3)CC2)c(F)n1", 7720]
]}
